molecular target: Angiotensin II receptor (AT-1) type-1 (Rattus norvegicus, UniProt P29089+P25095); experiment: Inhibition of [125I]-[Sar1,Ile8]Ang II binding at rat angiotensin II (type 1) receptor.; format: protein assay
measured-attribute: IC50 (nM)

• CCCc1nc(CC)c(C(=O)CCN(C(=O)CC)c2cccnc2)n1Cc1ccc(-c2ccccc2S(=O)(=O)NC(=O)OCCC(C)C)cc1F = 0.45
• CCCc1nc(CC)c(C(=O)CCN(C(=O)c2cccnc2)c2cccnc2)n1Cc1ccc(-c2ccccc2S(=O)(=O)NC(=O)OCCC(C)C)cc1F = 0.5
• CCCC(=O)N(CCC(=O)c1c(CC)nc(CCC)n1Cc1ccc(-c2ccccc2S(=O)(=O)NC(=O)OCCC(C)C)cc1)c1cccnc1 = 0.4
• CCCCOC(=O)NS(=O)(=O)c1ccccc1-c1ccc(Cn2c(CCC)nc(CC)c2C(=O)CCN(C(=O)CCC)c2ccccc2)c(F)c1 = 0.2
• CCCC(=O)N(CCC(=O)c1c(CC)nc(CCC)n1Cc1ccc(-c2ccccc2S(=O)(=O)NC(=O)OCCC(C)C)cc1F)c1cccnc1 = 0.32
• CCCCOC(=O)NS(=O)(=O)c1ccccc1-c1ccc(Cn2c(CCC)nc(CC)c2C(=O)CCN(CCCC)C(=O)c2ccccc2)c(F)c1 = 0.3

###

Target: Type-2 angiotensin II receptor (Rattus norvegicus)
Sequence (P35351 whole entry): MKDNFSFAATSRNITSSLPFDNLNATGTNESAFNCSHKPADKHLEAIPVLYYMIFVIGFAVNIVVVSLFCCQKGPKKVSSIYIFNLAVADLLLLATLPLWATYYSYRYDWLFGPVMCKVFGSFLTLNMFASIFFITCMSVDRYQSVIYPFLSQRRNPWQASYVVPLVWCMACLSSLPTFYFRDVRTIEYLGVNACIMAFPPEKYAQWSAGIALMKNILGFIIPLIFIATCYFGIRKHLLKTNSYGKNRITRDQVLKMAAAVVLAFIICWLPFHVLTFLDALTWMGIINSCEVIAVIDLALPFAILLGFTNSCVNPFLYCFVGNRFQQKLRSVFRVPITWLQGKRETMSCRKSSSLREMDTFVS
Test: Inhibition of [125I]-[Sar1,Ile8]Ang II binding at rat angiotensin II (type 2) receptor.
Each record here notes measured IC50.
measured-attribute: IC50 (pM)

• CCCCOC(=O)NS(=O)(=O)c1ccccc1-c1ccc(Cn2c(CCC)nc(CC)c2C(C)=O)c(F)c1 = 1000
• CCCc1nc(CC)c(C(=O)CCN(C(=O)CC)c2cccnc2)n1Cc1ccc(-c2ccccc2S(=O)(=O)NC(=O)OCCC(C)C)cc1F = 490
• CCCc1nc(CC)c(C(=O)CCN(C(=O)c2ccccc2)c2ccccc2)n1Cc1ccc(-c2ccccc2S(=O)(=O)NC(=O)OCCC(C)C)cc1F = 60
• CCCc1nc(CC)c(C(=O)CCN(C(=O)C(C)C)c2cccnc2)n1Cc1ccc(-c2ccccc2S(=O)(=O)NC(=O)OCCC(C)C)cc1F = 1000

###

target: Angiotensin II receptor (Rattus norvegicus) (UniProt P29089+P25095+P35351); assay: Ratio of IC50 at Angiotensin II type 1 and angiotensin II type 2 receptors; format: protein assay
Sequence (P25095 whole entry, looked up, one chain of several): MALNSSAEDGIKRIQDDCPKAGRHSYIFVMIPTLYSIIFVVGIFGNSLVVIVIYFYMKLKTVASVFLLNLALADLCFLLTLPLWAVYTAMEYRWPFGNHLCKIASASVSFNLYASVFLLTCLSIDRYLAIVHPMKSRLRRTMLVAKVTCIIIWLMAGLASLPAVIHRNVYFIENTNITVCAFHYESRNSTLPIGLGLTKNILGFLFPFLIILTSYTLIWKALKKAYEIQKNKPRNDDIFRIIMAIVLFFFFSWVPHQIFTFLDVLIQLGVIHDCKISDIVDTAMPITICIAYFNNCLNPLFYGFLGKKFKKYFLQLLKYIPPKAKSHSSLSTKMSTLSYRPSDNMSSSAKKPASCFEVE
Sequence (P29089 whole entry, looked up, one chain of several): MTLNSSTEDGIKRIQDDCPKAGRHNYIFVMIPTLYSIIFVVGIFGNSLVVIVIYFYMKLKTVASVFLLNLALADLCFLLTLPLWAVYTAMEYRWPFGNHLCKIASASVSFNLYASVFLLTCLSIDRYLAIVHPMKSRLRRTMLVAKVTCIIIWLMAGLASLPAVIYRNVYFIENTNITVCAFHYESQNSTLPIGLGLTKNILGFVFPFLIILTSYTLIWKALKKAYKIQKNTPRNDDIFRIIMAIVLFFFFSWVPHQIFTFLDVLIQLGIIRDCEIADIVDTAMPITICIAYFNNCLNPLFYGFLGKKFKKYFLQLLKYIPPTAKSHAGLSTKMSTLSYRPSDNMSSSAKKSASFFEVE
Recorded IC50 ratio values for a group of compounds are listed next.
measured-attribute: IC50 ratio

- CCCc1nc(CC)c(C(=O)CCN(C(=O)c2cccnc2)c2cccnc2)n1Cc1ccc(-c2ccccc2S(=O)(=O)NC(=O)OCCC(C)C)cc1F: 0.44
- CCCC(=O)N(CCC(=O)c1c(CC)nc(CCC)n1Cc1ccc(-c2ccccc2S(=O)(=O)NC(=O)OCCC(C)C)cc1)c1cccnc1: 2.5
- CCCc1nc(CC)c(C(=O)CCN(C(C)=O)c2cccnc2)n1Cc1ccc(-c2ccccc2S(=O)(=O)NC(=O)OCCC(C)C)cc1F: 7.5
- CCCCOC(=O)NS(=O)(=O)c1ccccc1-c1ccc(Cn2c(CCC)nc(CC)c2C(=O)OC)c(Cl)c1: 231
- CCCCOC(=O)NS(=O)(=O)c1ccccc1-c1ccc(Cn2c(CCC)nc(CC)c2C(=O)CCN(C(=O)c2ccccc2)c2ccccc2)c(F)c1: 0.7
- CCCc1nc(CC)c(C(=O)CCN(C(=O)c2ccncc2)c2cccnc2)n1Cc1ccc(-c2ccccc2S(=O)(=O)NC(=O)OCCC(C)C)cc1F: 1.4
- CCCc1nc(CC)c(C(=O)CCN(C(=O)C(C)C)c2cccnc2)n1Cc1ccc(-c2ccccc2S(=O)(=O)NC(=O)OCCC(C)C)cc1F: 3.3
